# IC50 (ln) listing for each entry below
system: SAS; assay: IC50 (cell viability, 72 h) (ln(µM))
Please give only the number in your answer, with no unit.

mol-smiles	IC50 (ln)
Cc1[nH]c2ccccc2c1CCNCc1ccc(/C=C/C(=O)NO)cc1	-1.8
CC(=O)O[C@H]1C(=O)[C@@]2(C)[C@H]([C@H](OC(=O)c3ccccc3)[C@]3(O)C[C@H](OC(=O)[C@H](O)[C@@H](NC(=O)c4ccccc4)c4ccccc4)C(C)=C1C3(C)C)[C@]1(OC(C)=O)CO[C@@H]1C[C@@H]2O	-3.47

Lab note: measured IC50 (ln) of Cc1cc(-c2nc(-c3ccc(OC(F)(F)F)cc3)no2)nn1Cc1ccnc(N2CCN(C3CC3)CC2)c1 was -3.51
